Origin of the recorded values: paper PMC12466757

The reader will find MIC measurements below, all made with Candida auris (DSM 21092).
Value expressed in µM; do not type the unit.

1. CCCCOc1ccc(/C=C2\CN(Cc3ccccc3)C/C(=C\c3ccc(OCCCC)c(OCCCC)c3)C2=O)cc1OCCCC = 31.2
2. CCCCOc1ccc(/C=C2\CN(Cc3ccccc3)C/C(=C\c3ccc(OCCCC)cc3OCCCC)C2=O)c(OCCCC)c1 = 7.8
3. CCCCOc1ccc(/C=C2\CN(CC)C/C(=C\c3ccc(OCCCC)cc3OCCCC)C2=O)c(OCCCC)c1 = 31.2
4. CCCCOc1ccc(/C=C2\CN(CC)C/C(=C\c3ccc(OCCCC)c(OCCCC)c3OCCCC)C2=O)c(OCCCC)c1OCCCC = 31.2

Now turn to the next molecule.
Input line: Recorded MIC of OC(Cn1cncn1)(Cn1cncn1)c1ccc(F)cc1F [Fluconazole, reference compound] , please.
Output line: 500

* * *

# PROTOCOL: in vitro
# MEASUREMENT PARAMETERS: human
QUANTITY: CC50 at 48 h

Input line: Dear colleague, I am looking for the recorded CC50 at 48 h of the following molecule: "CCCCOc1ccc(/C=C2\CN(C3CC3)C/C(=C\c3ccc(OCCCC)cc3OCCCC)C2=O)c(OCCCC)c1"
Output line: > 1 mM

* * *

# PROTOCOL: Cytotoxicity, resazurin cell viability assay, HepG2
# MEASUREMENT PARAMETERS: human
QUANTITY: CC50 at 48 h (µM)
// note: answer is a bare numeric in µM

Input line: Fill in: CC50 at 48 h of "CCN1C/C(=C\c2ccc([N+](=O)[O-])cc2)C(=O)/C(=C/c2ccc([N+](=O)[O-])cc2)C1" is ___
Output line: 314

* * *

# PROTOCOL: in vitro
# MEASUREMENT PARAMETERS: human
QUANTITY: CC50 at 48 h

Input line: Entry under review: CCCCOc1ccc(/C=C2\CN(C3CC3)C/C(=C\c3ccc(OCCCC)cc3OCCCC)C2=O)c(OCCCC)c1 [4h] . Reported CC50 at 48 h?
Output line: > 1000 µM

* * *

# PROTOCOL: in vitro
# MEASUREMENT PARAMETERS: human, Caco-2
QUANTITY: CC50 at 48 h (µM)
Give the value in µM but do not write µM after it.

Input line: For CCCCOc1ccc(/C=C2\CN(Cc3ccccc3)C/C(=C\c3ccc(OCCCC)cc3)C2=O)cc1 [2o] , what is its reported CC50 at 48 h?
Output line: 455

* * *

# PROTOCOL: in vitro
# MEASUREMENT PARAMETERS: human, Caco-2
Listed next: entries and their corresponding CC50 at 48 h.
API: value field is a number in µM; no unit string.

Below, 3 molecules whose answers are already recorded.
1) CCN1C/C(=C\c2ccccc2F)C(=O)/C(=C/c2ccccc2F)C1 = 68.3
2) CCN1C/C(=C\c2cnc3ccccc3c2)C(=O)/C(=C/c2cnc3ccccc3c2)C1 = 30
3) CCN1C/C(=C\c2ccc3c(c2)OCO3)C(=O)/C(=C/c2ccc3c(c2)OCO3)C1 = 152

Shifting focus to the molecule that follows.
Input line: Would you kindly share the measured CC50 at 48 h for "O=C1/C(=C/c2ccc[nH]2)CN(Cc2ccccc2)C/C1=C\c1ccc[nH]1" ?
Output line: 26.1

* * *

# PROTOCOL: Cytotoxicity, resazurin cell viability assay, HaCaT
# MEASUREMENT PARAMETERS: human
QUANTITY: CC50 at 48 h (µM)
Respond with the bare value in µM.

Input line: Need CC50 at 48 h, item CCN1C/C(=C\c2ccc([N+](=O)[O-])cc2)C(=O)/C(=C/c2ccc([N+](=O)[O-])cc2)C1 [1d]
Output line: 163

* * *

# PROTOCOL: in vitro
# MEASUREMENT PARAMETERS: human, Caco-2
QUANTITY: CC50 at 48 h (µM)
I only need the number, in µM, no unit after it.

Some compounds with recorded CC50 at 48 h:
1) CCCCOc1ccc(/C=C2\CN(CC)C/C(=C\c3ccc(OCCCC)c(OCCCC)c3OCCCC)C2=O)c(OCCCC)c1OCCCC = 687
2) CCN1C/C(=C\c2ccc(C#N)cc2)C(=O)/C(=C/c2ccc(C#N)cc2)C1 = 70.3

Now examine the next entry.
Input line: For "CCCCOc1ccc(/C=C2\CN(CC)C/C(=C\c3ccc(OCCCC)cc3OCCCC)C2=O)c(OCCCC)c1" , what is its reported CC50 at 48 h?
Output line: 697
